Molecular target: human 5-hydroxytryptamine-2C (h5-HT2C) receptor (Homo sapiens)
Construct: expressed in transfected cells; host or cells: CHO (Chinese Hamster Ovary) cells; membranes
Experiment: [125I]DOI binding to membranes of CHO cells expressing the human 5-HT2C receptor
Conditions: [125I]DOI radioligand, CHO cell membranes, room temperature 60 min; read-out: 5-HT2C Affinity Ki
pKi: −log10 of the molar value.
Below, each entry is listed with its recorded pKi.
measured-metric: pKi

compound="COc1ccc(-c2cc(F)c3c(c2)CC(CN)O3)cc1 (racemic)" recorded_number=5.79
compound="NCC1Cc2cc(-c3ccc(F)cc3)cc(F)c2O1 (racemic)" recorded_number=5.81
compound="CNCC1Cc2cc(-c3ccccc3)cc(-c3ccccc3OC)c2O1 (racemic)" recorded_number=6.62

###

Target: human 5-HT2C receptor (Homo sapiens)
Test: 5-HT2C receptor-stimulated calcium mobilization (FLIPR) in CHO cells;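 further: Fluo-3-AM fluorescence read on FLIPR every 1 s, agonist added after 10 baseline reads, response taken as peak minus lowest raw fluorescence count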
Assay type: cell-based
Conditions: calcium mobilization, CHO cells stably expressing human 5-HT2C; read-out: 5-HT2C Function EC50
Below, each entry is listed with its recorded log10(EC50).
measured-metric: log10(EC50) (log10 of the value in nM)

compound="CNCC1Cc2cccc(-c3c(Cl)cc(Cl)cc3Cl)c2O1 (racemic)" recorded_number=0.60
compound="NCC1Cc2cccc(-c3ccc(F)cc3F)c2O1 (single isomer, unassigned; (-)) [Example 148]" recorded_number=2.46
compound="CNCC1Cc2cc(Cl)cc(-c3cc(Cl)ccc3Cl)c2O1 (single isomer, unassigned; (-)) [Example 563]" recorded_number=2.13
compound="Cc1cc2c(c(-c3cc(Cl)ccc3Cl)c1)OC(CN)C2 (racemic)" recorded_number=0.48
compound="NCC1Cc2cc(F)cc(-c3ccncc3)c2O1 (racemic)" recorded_number=1.76
compound="Cc1cccc(C)c1-c1cccc2c1OC(CN)C2 (single isomer, unassigned; (+)) [Example 58]" recorded_number=2.50
compound="COc1cc2c(c(-c3ccc(Cl)cc3Cl)c1)OC(CN)C2 (racemic)" recorded_number=1.18
compound="CNCC1Cc2cc(Cl)cc(-c3ccccc3OC)c2O1 (racemic)" recorded_number=2.33
compound="CNCC1Cc2cc(Cl)cc(-c3cc(Cl)ccc3OC)c2O1 (racemic)" recorded_number=2.55
compound="NCC1Cc2cc(C(F)(F)F)cc(-c3ccoc3)c2O1 (racemic)" recorded_number=2.36
compound="Cc1cc2c(c(-c3ccc(Cl)cc3Cl)c1)OC(CN)C2 (racemic) [Example 297]" recorded_number=-0.14
compound="COc1ccc(C)c(-c2cc(F)cc3c2OC(CN)C3)c1 (racemic)" recorded_number=2.66
compound="CNCC1Cc2cc(F)cc(-c3ccc(Cl)cc3Cl)c2O1 (single isomer, unassigned; (+)) [Example 447]" recorded_number=0.48
compound="CN(C)CC1Cc2cc(F)cc(-c3c(Cl)cccc3Cl)c2O1 (racemic)" recorded_number=0.48
compound="COc1ccccc1-c1cc(F)cc2c1OC(CN)C2 (racemic)" recorded_number=0.95

###

Biological target: human 5-hydroxytryptamine-2C (h5-HT2C) receptor (Homo sapiens)
Construct: expressed in transfected cells; host or cells: CHO (Chinese Hamster Ovary) cells; membranes
Sequence (P28335 33-458): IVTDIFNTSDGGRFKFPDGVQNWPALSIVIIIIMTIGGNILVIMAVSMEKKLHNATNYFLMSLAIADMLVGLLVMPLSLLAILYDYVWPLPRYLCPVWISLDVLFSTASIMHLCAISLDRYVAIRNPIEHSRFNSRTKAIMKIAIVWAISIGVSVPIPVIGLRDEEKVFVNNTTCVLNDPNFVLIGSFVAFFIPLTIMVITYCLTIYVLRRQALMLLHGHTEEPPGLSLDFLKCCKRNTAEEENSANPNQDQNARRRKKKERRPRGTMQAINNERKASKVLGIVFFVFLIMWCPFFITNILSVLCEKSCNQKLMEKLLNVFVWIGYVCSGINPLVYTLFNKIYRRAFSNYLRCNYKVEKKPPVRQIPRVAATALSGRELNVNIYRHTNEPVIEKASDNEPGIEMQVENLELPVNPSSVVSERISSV
Assay: [125I]DOI binding to membranes of CHO cells expressing the human 5-HT2C receptor
Conditions: [125I]DOI radioligand, CHO cell membranes, room temperature 60 min; read-out: 5-HT2C Affinity Ki
measured-metric: Ki (nM)

compound="Cc1c(Cl)cc(C(C)C)c2c1CC(CN)O2 (single isomer, unassigned; (+)) [Example 23]" recorded_number=9
compound="COc1cc2c(c(-c3cc(F)ccc3F)c1)OC(CN)C2 (racemic)" recorded_number=13
compound="NCC1Cc2cc(F)cc(-c3cccc(F)c3)c2O1 (racemic)" recorded_number=108
compound="Cc1cccc(Nc2cccc3c2OC(CN)C3)c1 (racemic)" recorded_number=279
compound="CNCC1Cc2cccc(-c3c(Cl)cccc3Cl)c2O1 (single isomer, unassigned; (-)) [Example 434]" recorded_number=0.03
compound="Cc1ccccc1-c1cccc2c1OC(CN)C2 (single isomer, unassigned; (-)) [Example 49]" recorded_number=10
compound="CNCC1Cc2cc(F)cc(-c3cc(Cl)ccc3Cl)c2O1 (racemic) [Example 449]" recorded_number=1

###

Target: human 5-hydroxytryptamine-2C (h5-HT2C) receptor (Homo sapiens, UniProt P28335)
Construct: expressed in transfected cells; host or cells: CHO (Chinese Hamster Ovary) cells; membranes
Sequence (P28335 33-458): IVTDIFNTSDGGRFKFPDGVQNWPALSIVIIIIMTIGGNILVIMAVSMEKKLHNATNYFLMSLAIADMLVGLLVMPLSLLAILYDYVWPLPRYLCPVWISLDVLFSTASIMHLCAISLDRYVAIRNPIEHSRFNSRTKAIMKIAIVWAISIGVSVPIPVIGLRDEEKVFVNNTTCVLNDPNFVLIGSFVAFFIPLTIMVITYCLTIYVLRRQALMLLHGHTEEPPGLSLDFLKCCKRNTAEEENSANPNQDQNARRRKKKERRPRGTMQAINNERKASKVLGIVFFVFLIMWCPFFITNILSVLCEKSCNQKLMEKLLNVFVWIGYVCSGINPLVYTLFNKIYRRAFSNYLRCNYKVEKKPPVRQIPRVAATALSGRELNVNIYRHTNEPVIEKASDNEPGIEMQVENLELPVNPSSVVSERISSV
Assay: [125I]DOI binding to membranes of CHO cells expressing the human 5-HT2C receptor
Conditions: [125I]DOI radioligand, CHO cell membranes, room temperature 60 min; read-out: 5-HT2C Affinity Ki
Ki vs 0.5 nM: less than gives MET; not less than gives NOT MET.

compound="NCC1Cc2cc(F)cc(-c3cccnc3)c2O1 (racemic) [Example 206]" measured_target="human 5-hydroxytryptamine-2C (h5-HT2C) receptor (Homo sapiens, UniProt P28335)" class_name="NOT MET"
compound="NCC1Cc2cccc(-c3ccc(C(F)(F)F)cc3)c2O1 (racemic) [Example 82]" measured_target="human 5-hydroxytryptamine-2C (h5-HT2C) receptor (Homo sapiens, UniProt P28335)" class_name="NOT MET"
compound="Cc1cccc(C)c1-c1cc(F)cc2c1OC(CN)C2 (single isomer, unassigned; (-)) [Example 229]" measured_target="human 5-hydroxytryptamine-2C (h5-HT2C) receptor (Homo sapiens, UniProt P28335)" class_name=MET
compound="CNCC1Cc2cc(F)cc(-c3ccc(Cl)cc3Cl)c2O1 (racemic) [Example 445]" measured_target="human 5-hydroxytryptamine-2C (h5-HT2C) receptor (Homo sapiens, UniProt P28335)" class_name=MET
compound="NCC1Cc2cc(F)cc(-c3cccnc3)c2O1 (single isomer, unassigned; (+)) [Example 208]" measured_target="human 5-hydroxytryptamine-2C (h5-HT2C) receptor (Homo sapiens, UniProt P28335)" class_name="NOT MET"
compound="Cc1ccccc1-c1cccc2c1OC(CN)C2 (racemic) [Example 47]" measured_target="human 5-hydroxytryptamine-2C (h5-HT2C) receptor (Homo sapiens, UniProt P28335)" class_name=MET
compound="Cc1ccc(-c2cc(C)cc3c2OC(CN)C3)cc1 (racemic) [Example 290]" measured_target="human 5-hydroxytryptamine-2C (h5-HT2C) receptor (Homo sapiens, UniProt P28335)" class_name="NOT MET"

###

Target: human 5-hydroxytryptamine-2C (h5-HT2C) receptor (Homo sapiens)
Construct: expressed in transfected cells; host or cells: CHO (Chinese Hamster Ovary) cells; membranes
Sequence (P28335 33-458): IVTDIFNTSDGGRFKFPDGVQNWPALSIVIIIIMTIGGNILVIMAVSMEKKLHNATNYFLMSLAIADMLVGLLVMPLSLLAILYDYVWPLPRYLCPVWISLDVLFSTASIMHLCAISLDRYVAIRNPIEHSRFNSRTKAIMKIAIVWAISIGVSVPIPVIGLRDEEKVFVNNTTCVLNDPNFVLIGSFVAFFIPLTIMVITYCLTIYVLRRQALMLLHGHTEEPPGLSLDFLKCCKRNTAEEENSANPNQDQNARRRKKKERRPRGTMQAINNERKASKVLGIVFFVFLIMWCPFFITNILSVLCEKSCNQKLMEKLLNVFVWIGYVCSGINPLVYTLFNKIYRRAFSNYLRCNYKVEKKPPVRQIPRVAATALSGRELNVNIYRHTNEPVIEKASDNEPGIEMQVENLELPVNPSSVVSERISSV
Experiment: [125I]DOI binding to membranes of CHO cells expressing the human 5-HT2C receptor
Details: [125I]DOI radioligand, CHO cell membranes, room temperature 60 min; read-out: 5-HT2C Affinity Ki
measured-metric: Ki (nM)

molecule="NCC1Cc2cc(F)cc(-c3ccsc3)c2O1 (racemic)" measured_metric=Ki recorded_number=8.5
molecule="Cc1cccc(-c2cc(C)cc3c2OC(CN)C3)c1 (racemic)" measured_metric=Ki recorded_number=1
molecule="NCC1Cc2cccc(Nc3ccc(Cl)cc3)c2O1 (racemic)" measured_metric=Ki recorded_number=384
molecule="CC1(CN)Cc2cc(Cl)cc(-c3ccccc3)c2O1 (racemic)" measured_metric=Ki recorded_number=55
molecule="NCC1Cc2cc(Cl)cc(-c3ccsc3)c2O1 (single isomer, unassigned; (-)) [Example 91]" measured_metric=Ki recorded_number=5
molecule="Cc1cc2c(c(-c3ccc(Cl)cc3Cl)c1)OC(CN)C2 (single isomer, unassigned; (+)) [Example 299]" measured_metric=Ki recorded_number=0.19
molecule="CNCC1Cc2cc(-c3cccc(Cl)c3)cc(F)c2O1 (racemic)" measured_metric=Ki recorded_number=1050
molecule="Cc1cc2c(c(-c3ccccc3F)c1)OC(CN)C2 (racemic)" measured_metric=Ki recorded_number=1.2
molecule="NCC1Cc2cc(Cl)cc(-c3ccc(Cl)cc3Cl)c2O1 (single isomer, unassigned; (+)) [Example 253]" measured_metric=Ki recorded_number=8.6
molecule="NCC1Cc2cccc(-c3ccc4ccccc4c3)c2O1 (racemic)" measured_metric=Ki recorded_number=43
molecule="NCC1Cc2c(cccc2-c2ccccc2C(F)(F)F)O1 (single isomer, unassigned; (-)) [Example 123]" measured_metric=Ki recorded_number=207
molecule="NCC1Cc2cc(-c3ccccc3C(F)(F)F)cc(F)c2O1 (racemic)" measured_metric=Ki recorded_number=201
molecule="Cc1ccc(Nc2cccc3c2OC(CN)C3)cc1 (racemic)" measured_metric=Ki recorded_number=203
molecule="NCC1Cc2cc(C(F)(F)F)cc(-c3ccccc3Cl)c2O1 (racemic)" measured_metric=Ki recorded_number=25
molecule="COc1cccc(-c2cccc3c2OC(CN)C3)c1 (racemic) [Example 68]" measured_metric=Ki recorded_number=5
molecule="CNCC1Cc2cc(F)cc(-c3ccccc3C)c2O1 (single isomer, unassigned; (-)) [Example 441]" measured_metric=Ki recorded_number=10
